Ref: paper PMC9784495

- assayComment: Pharmacokinetics of ginsenosides in plasma after a single oral dose of 6 g FRG or RG, crossover clinical trial
- Assay type: in vivo, human
- assayConditions: human, in vivo, po, AUC24
parameterMeasured: AUC (ng·h/mL)
Answer with a number only, understood to be in ng·h/mL.

Request: // query AUC value for entry CC(C)=CCC[C@](C)(O[C@@H]1O[C@H](CO[C@@H]2OC[C@H](O)[C@H](O)[C@H]2O)[C@@H](O)[C@H](O)[C@H]1O)[C@H]1CC[C@]2(C)[C@@H]1[C@H](O)C[C@@H]1[C@@]3(C)CC[C@H](O)C(C)(C)[C@@H]3CC[C@]12C
Result: 33.4
